src = paper PMC3439491

target: MA-MADS5 full length (A) (Musa acuminata (AAA group, Cavendish …, UniProt E9NW24 1-243)); assay: EMSA; EMSA with 2 ug recombinant protein or 15 ug nuclear extract, buffer by reference to earlier work; circularization pre-incubation: 60 mM KCl, 8 mM HEPES pH 7.9; conditions: protein: recombinant; tags: 6xHis (pQE30); chain copies: 2; label: 32P 5' end; blunt
Sequence (E9NW24 entry or part of it): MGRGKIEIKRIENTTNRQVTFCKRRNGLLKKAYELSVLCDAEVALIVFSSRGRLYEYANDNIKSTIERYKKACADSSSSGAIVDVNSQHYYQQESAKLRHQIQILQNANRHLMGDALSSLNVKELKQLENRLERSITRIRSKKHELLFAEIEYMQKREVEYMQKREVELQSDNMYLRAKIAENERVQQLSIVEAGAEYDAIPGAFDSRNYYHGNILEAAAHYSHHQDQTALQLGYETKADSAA
ENDPOINT: binding result

INSERT INTO measurements (binder, endpoint, experimental_value) VALUES
  ('CArG motif 9 (MA-LEC) (dsDNA) DNA 1: ATAAATTCTTAAAAGATCCTAG DNA 2: CTAGGATCTTTTAAGAATTTAT', 'binding result', 'no binding'),
  ('CArG motif 8 (MA-LEC) (dsDNA) DNA 1: CTGGTATCTATTTATGAAATCT DNA 2: AGATTTCATAAATAGATACCAG', 'binding result', 'binds'),
  ('CArG motif 4 (MA-ACS1) (dsDNA) DNA 1: GATCATGCTTTTATTGTTTCTT DNA 2: AAGAAACAATAAAAGCATGATC', 'binding result', 'no binding'),
  ('CArG motif 3 (MA-ACS1) (dsDNA) DNA 1: GGGTCAACTATAATTGCCTTCC DNA 2: GGAAGGCAATTATAGTTGACCC', 'binding result', 'no binding'),
  ('CArG motif 7 (MA-EXP) (dsDNA) DNA 1: AAGCACGCATATTTGTGCTGCA DNA 2: TGCAGCACAAATATGCGTGCTT', 'binding result', 'binds'),
  ('CArG motif 5 (MA-ACO1) (dsDNA) DNA 1: GAGGTTGGCAATTTGTCACTAC DNA 2: GTAGTGACAAATTGCCAACCTC', 'binding result', 'binds'),
  ('CArG motif 2 (MA-ACS1) (dsDNA) DNA 1: ACACCCCATAAATTTGATCTTC DNA 2: GAAGATCAAATTTATGGGGTGT', 'binding result', 'binds');

Next binder, binding result to be filled in.
Task: Write down binding result measured for item CArG motif 6 (MA-ACO1) (dsDNA) DNA 1: GAACGCCTATAAATTGCCTGGT DNA 2: ACCAGGCAATTTATAGGCGTTC
Result: no binding
